Value source: ChEMBL document CHEMBL2380208

- Protocol Notes: Inhibition of Staphylococcus aureus DNA topoisomerase 4
Assay Metric: pIC50
As a rule, pIC50 stands for the negative log10 of the concentration, concentration in M.

Solved entries (count: 10):
Compound	pIC50
COc1ccc2nccc([C@@H](O)CC[C@@H]3CCN(C4CC(c5ccno5)C4)C[C@@H]3C(=O)O)c2c1 (stereo not given in full)	4.22
COc1ccc2nccc([C@@H](O)CC[C@@H]3CCN(C4CC(c5cc(F)ccc5C)C4)C[C@@H]3C(=O)O)c2c1 (stereo not given in full)	4.35
COc1ccc2nccc([C@@H](O)CC[C@@H]3CCN(C4CC(c5c(F)cccc5OC)C4)C[C@@H]3C(=O)O)c2c1 (stereo not given in full)	4.00
COc1ccc2nccc([C@@H](O)CC[C@@H]3CCN(C4CC(c5cccc(F)c5)C4)C[C@@H]3C(=O)O)c2c1 (stereo not given in full)	4.42
COc1ccc2nccc([C@@H](O)CC[C@@H]3CCN(C4CC(c5cc(F)c(OC)cc5F)C4)C[C@@H]3C(=O)O)c2c1 (stereo not given in full)	3.62
COc1ccc2nccc([C@@H](O)CC[C@@H]3CCN(C4CC(c5cc(F)cc(F)c5F)C4)C[C@@H]3C(=O)O)c2c1 (stereo not given in full)	5.08
COc1ccc2nccc([C@@H](O)CC[C@@H]3CCN(C4CC(c5ccc(C#N)cc5)C4)C[C@@H]3C(=O)O)c2c1 (stereo not given in full)	3.62
COc1ccc2nccc(C(O)CC[C@@H]3CCN(C/C=C/c4cc(F)ccc4F)C[C@@H]3C(=O)O)c2c1 (stereo not given in full)	5.05
COc1ccc2nccc([C@@H](O)CC[C@@H]3CCN(C4CC(c5cc(SC)ccc5F)C4)C[C@@H]3C(=O)O)c2c1 (stereo not given in full)	4.30
COc1ccc2nccc([C@@H](O)CC[C@@H]3CCN(C4CC(c5cccc(F)c5F)C4)C[C@@H]3C(=O)O)c2c1 (stereo not given in full)	4.52

Lookup: For COc1ccc2nccc([C@@H](O)CC[C@@H]3CCN(C4CC(c5cc(F)c(Cl)cc5F)C4)C[C@@H]3C(=O)O)c2c1 (stereo not given in full) , write its pIC50.
Found: 3.92

Lookup: For COc1ccc2nccc([C@@H](O)CC[C@@H]3CCN(C4CC(c5c(OC)ccc(F)c5F)C4)C[C@@H]3C(=O)O)c2c1 (stereo not given in full) , write its pIC50.
Found: 4.35

Lookup: For COc1ccc2nccc([C@@H](O)CC[C@@H]3CCN(C4CC(c5ccncn5)C4)C[C@@H]3C(=O)O)c2c1 (stereo not given in full) , write its pIC50.
Found: 3.92

Lookup: For COc1ccc2nccc([C@@H](O)CC[C@@H]3CCN(C4CC(c5cc(Br)ccc5F)C4)C[C@@H]3C(=O)O)c2c1 (stereo not given in full) , write its pIC50.
Found: 4.30
